- System: Salmonella enterica serovar Typhimurium SL1344
- experiment_summary: intracellular MIC (10-fold luminescence reduction); higher = less potent
- conditions: RAW264.7 macrophages
Where a name gives a salt, the structure may show the parent alone.
measurement_kind: intracellular MIC

# molecule, measurement_kind, result
rows = [
    ("CCCNC(C)(C)COC(=O)c1ccccc1 [MEPRYLCAINE HYDROCHLORIDE]", "intracellular MIC", "1.56 µM"),
]

The molecule NC1CCN(c2c(F)cc3c(=O)c(C(=O)O)cn(C4CC4)c3c2Cl)C1 (stereo unspecified) [CLINAFOXACIN HYDROCHLORIDE] showed intracellular MIC equal to ≤ 0.78 µM

The molecule COc1ccc2cc1Oc1ccc(cc1)C[C@H]1c3c(cc4c(c3Oc3cc5c(cc3OC)CCN(C)[C@@H]5C2)OCO4)CCN1C [CEPHARANTHINE] showed intracellular MIC equal to > 50 µM

The molecule CN(C)[C@@H]1C(O)=C(C(N)=O)C(=O)[C@@]2(O)C(O)=C3C(=O)c4c(O)cccc4[C@@](C)(O)[C@H]3C[C@@H]12 [TETRACYCLINE HYDROCHLORIDE] showed intracellular MIC equal to 1.56 µM

The molecule COC(=O)N/N=C/c1c[n+]([O-])c2ccccc2[n+]1[O-] [CARBADOX] showed intracellular MIC equal to ≤ 0.78 µM

The molecule CCn1cc(C(=O)O)c(=O)c2cc(F)c(N3CCNCC3)cc21 [NORFLOXACIN] showed intracellular MIC equal to 1.56 µM

The molecule C[C@H]1c2cccc(O)c2C(=O)C2=C(O)[C@]3(O)C(=O)C(C(N)=O)=C(O)[C@@H](N(C)C)[C@@H]3[C@@H](O)[C@@H]21 [DOXYCYCLINE HYDROCHLORIDE] showed intracellular MIC equal to ≤ 0.78 µM

The molecule COc1cc(CNC(=O)CCCC/C=C/C(C)C)ccc1O [CAPSAICIN] showed intracellular MIC equal to > 50 µM

The molecule CN(C)CC(c1ccc(O)cc1)C1(O)CCCCC1 (stereo unspecified) [DESVENLAFAXINE SUCCINATE] showed intracellular MIC equal to 25 µM

The molecule O=C(O)CCC(=O)OC[C@@H](NC(=O)C(Cl)Cl)[C@H](O)c1ccc([N+](=O)[O-])cc1 [CHLORAMPHENICOL SODIUM SUCCINATE] showed intracellular MIC equal to ≤ 0.78 µM

The molecule C=C1c2cccc(O)c2C(=O)C2=C(O)[C@]3(O)C(=O)C(C(N)=O)=C(O)[C@@H](N(C)C)[C@@H]3[C@@H](O)[C@H]12 [METHACYCLINE HYDROCHLORIDE] showed intracellular MIC equal to 3.13 µM

The molecule CCn1nc(C(=O)O)c(=O)c2cc3c(cc21)OCO3 [CINOXACIN] showed intracellular MIC equal to ≤ 0.78 µM

The molecule CCCCCCCCNC(C)C(O)c1ccc(SC(C)C)cc1 (stereo unspecified) [SULOCTIDIL] showed intracellular MIC equal to 1.56 µM

The molecule CCCCC(=O)N(Cc1ccc(-c2ccccc2-c2nnn[nH]2)cc1)[C@H](C(=O)O)C(C)C [VALSARTAN] showed intracellular MIC equal to > 50 µM

The molecule Cc1oc(=O)oc1CN1CCN(c2cc3c(cc2F)c(=O)c(C(=O)O)c2n3C(C)S2)CC1 (stereo unspecified) [PRULIFLOXACIN] showed intracellular MIC equal to ≤ 0.78 µM

The molecule Cc1nc2ccccc2n1Cc1ccc(Cl)cc1 [CHLORMIDAZOLE] showed intracellular MIC equal to ≤ 0.78 µM

The molecule C[C@H]1C[C@@H]2[C@H]([C@@H](O)C[C@@]3(C)[C@H]2CC[C@]3(O)C(=O)CO)[C@@]2(C)C=CC(=O)C=C12 [METHYLPREDNISOLONE] showed intracellular MIC equal to > 50 µM

The molecule COc1c(N2C[C@@H]3CCCN[C@@H]3C2)c(F)cc2c(=O)c(C(=O)O)cn(C3CC3)c12 [MOXIFLOXACIN HYDROCHLORIDE] showed intracellular MIC equal to > 50 µM

The molecule Nc1nc(/C(=C/CC(=O)O)C(=O)N[C@@H]2C(=O)N3C(C(=O)O)=CCS[C@H]23)cs1 [CEFTIBUTEN] showed intracellular MIC equal to > 50 µM

The molecule Cc1ccc(Cl)c(Nc2ccccc2C(=O)O)c1Cl [MECLOFENAMATE SODIUM] showed intracellular MIC equal to > 50 µM

The molecule CO/N=C(\C(=O)N[C@@H]1C(=O)N2C(C(=O)O)=C(C[N+]3(C)CCCC3)CS[C@H]12)c1csc(N)n1 [CEFEPIME HYDROCHLORIDE] showed intracellular MIC equal to ≤ 0.78 µM
